# assayed.system: full length human wildtype Btk (Homo sapiens (Human), UniProt Q06187)
# Sequence (Q06187 whole entry): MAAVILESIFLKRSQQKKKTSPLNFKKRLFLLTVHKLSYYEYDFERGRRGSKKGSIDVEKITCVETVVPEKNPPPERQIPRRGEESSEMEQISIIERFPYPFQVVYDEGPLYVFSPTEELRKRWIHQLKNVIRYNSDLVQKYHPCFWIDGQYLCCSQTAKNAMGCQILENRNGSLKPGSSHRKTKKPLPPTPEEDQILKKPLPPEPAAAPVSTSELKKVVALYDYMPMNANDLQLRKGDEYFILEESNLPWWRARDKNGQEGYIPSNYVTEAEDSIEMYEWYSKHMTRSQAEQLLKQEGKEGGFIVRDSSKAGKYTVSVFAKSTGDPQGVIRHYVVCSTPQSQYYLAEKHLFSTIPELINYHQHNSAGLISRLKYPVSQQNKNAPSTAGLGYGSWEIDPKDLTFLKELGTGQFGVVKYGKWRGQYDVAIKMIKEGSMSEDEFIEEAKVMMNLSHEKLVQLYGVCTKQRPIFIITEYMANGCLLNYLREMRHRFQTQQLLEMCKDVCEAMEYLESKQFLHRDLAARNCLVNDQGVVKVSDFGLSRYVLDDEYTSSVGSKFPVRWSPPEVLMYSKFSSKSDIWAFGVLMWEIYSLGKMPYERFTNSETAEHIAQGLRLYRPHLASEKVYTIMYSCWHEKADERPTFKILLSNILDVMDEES
Rule: IC50 below 30 nM gives satisfied. Equal to or above 30 nM gives not satisfied.

Task: Given Cc1c(-c2cn(C)c(=O)c(Nc3ccc(C4NCCN(C)C4=O)cc3)n2)cccc1N1Cc2cc(C(C)(C)C)sc2C1=O (centres unmarked) , is recorded IC50 strictly lower than 30 nM?
Output: satisfied

Task: What do you have for Cc1c(-c2cn(C)c(=O)c(Nc3ccc(C4C(=O)NCCN4C)cc3)n2)cccc1N1Cc2cc(C(C)(C)C)sc2C1=O (centres unmarked) [Compound 104] ?
Output: not satisfied

Task: Could you do the same for Cc1c(-c2cn(C)c(=O)c(Nc3ccc(C4C(=O)NCCN4C)cc3)n2)cccc1N1Cc2cc(C(C)(C)C)sc2C1=O (centres unmarked) [Compound 134] , please?
Output: satisfied

Task: Proceed to `CN1CCN(C)[C@@H](c2ccc(Nc3nc(-c4ccc(F)c(N5Cc6cc(C(C)(C)C)sc6C5=O)c4F)cn(C)c3=O)cc2)C1=O`
Output: not satisfied

Task: Follow-up entry: `CN1CCN(C)[C@@H](c2ccc(Nc3nc(-c4ccc(F)c(N5Cc6cc(C(C)(C)C)sc6C5=O)c4)cn(C)c3=O)cc2)C1=O`
Output: not satisfied
